# System: SF-295 CNS
# test name: NCI-60 one-dose screen, 48 h (100 = growth as untreated, 0 = no growth, -100 = all killed)
# assay setup: 10 µM unless noted
About 83,000 compounds went through this panel and 20% of them were active in at least one assay; those are over-represented in the sample as a whole.
measure: growth (%)

• C=CCC(CCC(CC=C)C(=O)OCC)C(=O)OCC (stereo not drawn) = 91.9
• CCCCCCCCCCCCOC(=N)N(C)C = 98.4
• O=C(/C=C1\C(=O)N(Cc2ccccc2)c2ccccc21)c1ccc(OCCN2CCCCC2)cc1 = 85.6
• CC(=O)/C(=C\c1c(-c2ccccc2)[nH]c2ccccc12)S(=O)(=O)c1ccccc1 = -41.4
• COc1ccc(C2=C/C(=C\c3ccc(Cl)cc3)C(=O)NN2C(=S)NN)cc1 = 96.3
• COc1cc(-c2nc3c(c(C)nc4c3nnn4-c3ccccc3)c(=O)o2)cc(OC)c1OC = 104
• O=S(=O)(O)CCI = 105
• COC(=O)C(N)CC(C)C (stereo not drawn) = 109
